Each record here notes measured Activity.
- Measured Target: Cytochrome P450 3A4 (Homo sapiens, UniProt P08684)
- Sequence (P08684 whole entry): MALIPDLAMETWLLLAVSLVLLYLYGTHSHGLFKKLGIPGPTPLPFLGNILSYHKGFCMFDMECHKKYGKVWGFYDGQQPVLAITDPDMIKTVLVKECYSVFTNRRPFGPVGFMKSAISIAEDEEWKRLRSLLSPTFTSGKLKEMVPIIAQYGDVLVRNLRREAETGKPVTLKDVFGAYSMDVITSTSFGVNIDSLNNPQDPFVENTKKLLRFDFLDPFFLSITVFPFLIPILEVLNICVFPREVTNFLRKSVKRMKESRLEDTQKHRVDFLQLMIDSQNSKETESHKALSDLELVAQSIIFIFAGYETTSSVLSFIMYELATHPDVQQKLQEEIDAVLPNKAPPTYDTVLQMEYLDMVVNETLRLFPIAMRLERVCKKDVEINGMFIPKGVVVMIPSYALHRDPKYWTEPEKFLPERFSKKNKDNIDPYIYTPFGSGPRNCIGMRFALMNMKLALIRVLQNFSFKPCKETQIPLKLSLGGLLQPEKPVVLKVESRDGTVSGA
- Measurement Notes: Increase in CYP3A4-mediated testosterone metabolism in human hepatocytes at 10 uM relative to rifampicin
- Format: ADME, cell-based, Hepatocyte
// return numeric value only (unit: %, not printed)

Molecule	Measured Target	Recorded Metric	Meas Value
C[C@@H](O)C[C@H]1OC[C@@H](C2CCCCC2)N(c2cc(C#CC(C)(C)C)sc2C(=O)O)C1=O	Cytochrome P450 3A4 (Homo sapiens, UniProt P08684)	Activity	2

Given the molecule CC(C)(C)C#Cc1cc(N2C(=O)COC[C@H]2C2CCCCC2)c(C(=O)O)s1 , write its reported Activity.
61

Given the molecule CC(C)(C)C#Cc1cc(N2C(=O)[C@@H](CCCO)OC[C@H]2C2CCCCC2)c(C(=O)O)s1 (relative stereo) , write its reported Activity.
2

Given the molecule CC(C)(C)C#Cc1cc(N2C(=O)[C@@H](CCO)OC[C@H]2C2CCCCC2)c(C(=O)O)s1 (relative stereo) , write its reported Activity.
5

---

- Measurement Notes: Volume of distribution at steady state in beagle dog at 0.3 mg/kg, iv
- Format: ADME, organism-based, Canis lupus familiaris
- Set-up: dose 0.3 mg/kg, route intravenous
- Conditions Used: in vivo, read-out: Vdss
Each record here notes measured Vd.
// return numeric value only (unit: L/kg, not printed)

Molecule	Recorded Metric	Meas Value
C[C@@H](O)C[C@H]1OC[C@@H](C2CCCCC2)N(c2cc(C#CC(C)(C)C)sc2C(=O)O)C1=O	Vd	0.7
CC(C)(C)C#Cc1cc(N2C(=O)[C@@H](CCCO)OC[C@H]2C2CCCCC2)c(C(=O)O)s1 (relative stereo)	Vd	0.1

Now for a further molecule.
Given the molecule CC(C)(C)C#Cc1cc(N2C(=O)[C@@H](CCO)OC[C@H]2C2CCCCC2)c(C(=O)O)s1 (relative stereo) , write its reported Vd.
0.3

---

Each record here notes measured Activity.
- Measured Target: Nuclear receptor subfamily 1 group I member 2 (Homo sapiens, UniProt O75469)
- Sequence (O75469 whole entry): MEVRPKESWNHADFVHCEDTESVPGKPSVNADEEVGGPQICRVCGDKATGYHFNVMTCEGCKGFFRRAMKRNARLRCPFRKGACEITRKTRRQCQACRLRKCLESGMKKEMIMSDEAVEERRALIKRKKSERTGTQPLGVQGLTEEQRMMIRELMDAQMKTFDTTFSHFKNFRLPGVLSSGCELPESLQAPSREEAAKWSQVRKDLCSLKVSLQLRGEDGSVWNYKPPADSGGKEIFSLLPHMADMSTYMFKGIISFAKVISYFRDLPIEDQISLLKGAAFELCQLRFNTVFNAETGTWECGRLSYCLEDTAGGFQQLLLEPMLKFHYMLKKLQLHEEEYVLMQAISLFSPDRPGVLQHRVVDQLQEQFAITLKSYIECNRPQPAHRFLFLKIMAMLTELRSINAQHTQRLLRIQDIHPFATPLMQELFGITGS
- Measurement Notes: Activation of PXR (unknown origin) at 10 uM by reporter gene assay relative to rifampicin
- Assay type: ADME
// return numeric value only (unit: %, not printed)

Molecule	Activity (%)
CC(C)(C)C#Cc1cc(N2C(=O)[C@@H](CCO)OC[C@H]2C2CCCCC2)c(C(=O)O)s1 (relative stereo)	3
CC(C)(C)C#Cc1cc(N2C(=O)CCC[C@H]2C2CCCCC2)c(C(=O)O)s1	141
C[C@H](O)C[C@H]1OC[C@@H](C2CCCCC2)N(c2cc(C#CC(C)(C)C)sc2C(=O)O)C1=O	4

Now for a further molecule.
Given the molecule CC(C)(C)C#Cc1cc(N2C(=O)COC[C@H]2C2CCCCC2)c(C(=O)O)s1 , write its reported Activity.
87
